targetOrSystem: Vasopressin V1 receptor (Rattus norvegicus, UniProt P48974+P30560)
assayName: Binding affinity against plasma membrane from rat liver
Positions of bridges follow the written chain, without caps; N, C: chain ends. Non-standard residues stand in square brackets, D forms with d. Residues, ends and D or L forms follow the SMILES beside them. Sar = CNCC(=O)O
reportedEndpoint: Kd (nM)
# number only, unit nM dropped from output

Query string: For the molecule "C[C@@H](C(=O)N[C@H](CCCN=C(N)N)C(=O)NCC(N)=O)N(C)C(=O)[C@@H]1CSSC[C@H](N)C(=O)N[C@@H](Cc2ccc(O)cc2)C(=O)N[C@@H](Cc2ccccc2)C(=O)N[C@@H](CCC(N)=O)C(=O)N[C@@H](CC(N)=O)C(=O)N1" , give its measured Kd value.
Result string: 280

Query string: For the molecule "CC(C)[C@H]1NC(=O)[C@H](Cc2ccccc2)NC(=O)[C@@H](Cc2ccc(O)cc2)NC(=O)CCSSC[C@@H](C(=O)N(C)[C@@H](C)C(=O)N[C@@H](CCCN=C(N)N)C(=O)NCC(N)=O)NC(=O)[C@H](CC(N)=O)NC1=O" , give its measured Kd value.
Result string: 53

Query string: For the molecule CN(CC(=O)N[C@@H](CCCNC(=N)N)C(=O)NCC(N)=O)C(=O)[C@@H]1CSSC[C@H](N)C(=O)N[C@@H](Cc2ccccc2)C(=O)N[C@@H](Cc2ccccc2)C(=O)N[C@@H](CCC(N)=O)C(=O)N[C@@H](CC(N)=O)C(=O)N1 (H-CFFQNC[Sar]RG-NH2; disulfide 1-6) , give its measured Kd value.
Result string: 170

Query string: For the molecule CC(C)[C@@H]1NC(=O)[C@H](Cc2ccccc2)NC(=O)[C@H](Cc2ccc(O)cc2)NC(=O)[C@@H](N)CSSC[C@@H](C(=O)N(C)CC(=O)N[C@@H](CCCNC(=N)N)C(=O)NCC(N)=O)NC(=O)[C@H](CC(N)=O)NC1=O (H-CYFVNC[Sar]RG-NH2; disulfide 1-6) , give its measured Kd value.
Result string: 110
